Origin of the recorded values: the RNAGym collection of RNA variant scans (doi:10.1126/science.aae0568)

B1: tRNA (parent)
chain: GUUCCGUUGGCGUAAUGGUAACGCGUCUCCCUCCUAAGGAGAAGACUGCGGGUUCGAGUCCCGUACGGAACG

Variants of: B1
protocol-notes: yeast fitness relative to wild type (ratio to wild type); higher = fitter; tRNA-Arg(CCU), competitive growth, 37 C, YPD
This sample holds only a part of the variants without activity.
Can you tell me yeast fitness for the items I'm about to list?
# answer = number (no unit)

## Input I'd like to know its yeast fitness. The variant in question is U13A A37U U53G
## Output 0.536

## Input What do we get for A40U U64C A70U ?
## Output 0.727

## Input What do we get for C5G G50A A65G ?
## Output 0.587

## Input What do we get for A14G U16A C24G G51A ?
## Output 0.511

## Input What do we get for U7G U8G A15C ?
## Output 0.543

## Input What do we get for A20G G38A C46U ?
## Output 0.883

## Input What do we get for C11U C34G ?
## Output 0.591

## Input What do we get for C34A C60G G68A ?
## Output 0.688

## Input What do we get for C22U G56C ?
## Output 0.608
